Recorded growth, one value per entry.
- Test system: A549/ATCC NSCLC
- method: NCI-60 one-dose screen, 48 h (100 = growth as untreated, 0 = no growth, -100 = all killed)
- measurement.conditions: 10 µM
Compounds without any hit were thinned out: in the full panel of roughly 83,000, 20% have a hit.
Give the quantity in %, number only.

Consider the worked cases shown below.
molecule	system.name	value.units	growth
C#Cc1cccc(NC(=O)c2ccc(Cl)cc2Cl)c1	A549/ATCC NSCLC	%	48.7
CC(=O)Nc1ccc(NC(C)=O)c2c1C(=O)c1ccccc1C2=O	A549/ATCC NSCLC	%	96.2
CC(=O)OCC(=O)[C@@]1(O)CC[C@H]2[C@@H]3CC[C@@H]4C[C@H](O)CC[C@]4(C)[C@H]3C(=O)C[C@@]21C	A549/ATCC NSCLC	%	101
O=c1c2ccccc2c(Br)c(Br)c2ccccc12	A549/ATCC NSCLC	%	95.1
Cc1cc(Cc2cc(C)c(N)cc2N)c(N)cc1N	A549/ATCC NSCLC	%	85.2
CC1(C)S(=O)(=O)OCCOS1(=O)=O	A549/ATCC NSCLC	%	92
Nc1ccc(NC(=O)c2cccc(N)c2)cc1	A549/ATCC NSCLC	%	47.6
CC(=O)/C(Cc1ccccc1)=N/O	A549/ATCC NSCLC	%	95.4

Query: Recall the reported growth of CC(C)CCOC(=O)c1ccccc1 when tested on A549/ATCC NSCLC.
Response: 102

Query: Enter measured growth, system A549/ATCC NSCLC, for the molecule shown: CCc1ccc(/C(C#N)=C/C=C/c2ccccc2)cc1
Response: 28.7

Query: // fetch growth; item: CC1CCC(C(=O)O)N1 (configuration not stated) ; system: A549/ATCC NSCLC
Response: 99.4

Query: Recall the reported growth of CCOC(=O)/C(C#N)=C/c1cccc(C)c1 when tested on A549/ATCC NSCLC.
Response: 95.5

---

- Tested on: BT-549 breast
- method: NCI-60 one-dose screen, 48 h (100 = growth as untreated, 0 = no growth, -100 = all killed)
- measurement.conditions: 10 µM
About 83,000 compounds went through this panel and 20% of them were active in at least one assay; those are over-represented in the sample as a whole.
# reported growth; entries follow
Quick note: give the figure in %, leave out the unit.

Previously resolved entries follow.
molecule	value.units	growth
CN(C)C(=O)Oc1cccc([N+](C)(C)C)c1	%	112
O=C(O)c1cccc([N+](=O)[O-])c1	%	108
C=CC[N+](C)(C)C	%	114
Nc1ccccc1C(=O)Nc1ccc(Cl)cc1Cl	%	99.2
O=C(O)CCC(NC(=O)OCc1ccccc1)C(=O)O (centres undefined)	%	119

Query: Answer with the recorded growth of Brc1cnc2ccccc2c1 only.
Response: 103

Query: Annotate the molecule O=c1cc(-c2ccccc2)[nH]c2c1CCCC2 with its measured growth.
Response: 53.7

---

- Test system: RPMI-8226 leukemia
- method: NCI-60 one-dose screen, 48 h
- measurement.conditions: 10 µM
Compounds without any hit were thinned out: in the full panel of roughly 83,000, 20% have a hit. Activity calls are given as the source filed them. The calls were made as follows: active = growth percent below 10; inactive = the rest.
Give your call using only these classes: t for active, f for inactive

compound	classification
O/N=C/c1ccc(O)cc1O	f
O=[N+]([O-])c1ccc(/C=C/C=C/c2ccccc2)c(Cl)c1	f
Cc1cc(=O)[nH]c(NN=C2CCCC2)n1	f
CCC/C=C(/C(C)=O)C(=O)OCC	f
CC(=O)OC1CC2C(C)(C)OC3CC(=O)OCC32C2CCC3(C)C(=CCC3c3ccoc3)C12C (stereo not drawn)	f
O=c1cc2oc3cc(O)c(O)cc3c(-c3ccccc3O)c-2cc1O	f
CC1NC(=O)NC1CCCCCC(=O)O (stereo not drawn)	f
CCOc1ccc(/C=C/C(=O)c2ccccc2)cc1	t
C/C(=N\O)C1(O)CCCCC1	f
C[C@@H](c1ccccc1)[C@@H](C(=O)O)c1ccccc1	f

Query: Test call for this compound, please: O=C(NCc1ccco1)Nc1c(Cl)cc(Cl)cc1Cl
Response: f

Query: Hey, what did the test say about CCC(C)(O)c1ccc(C)cc1 (stereo not drawn) ?
Response: f

Query: Tell me the recorded outcome of this test for O=C1Cc2cc(O)ccc2O1 .
Response: f

---

- System: SF-539 CNS
- method: NCI-60 one-dose screen, 48 h (100 = growth as untreated, 0 = no growth, -100 = all killed)
- measurement.conditions: 10 µM
Compounds without any hit were thinned out: in the full panel of roughly 83,000, 20% have a hit.
measured.attribute: growth (%)
The reply should be a number in %, with the unit left off.

# annotated cases, reported growth shown
molecule	growth / %
CCC(=O)Oc1ccc(OC)cc1	101
COc1ccccc1C1OC2=Nc3cc(C)c(C)cc3NC2C1=O (configuration not stated)	91
CC(C)=C(NC(=O)c1ccccc1)C(=O)O	110
COc1ccc(OC)c(/C=C2\CCc3ccccc3C2=O)c1	26
Brc1cnc2ccccc2c1	103
O=C1Cc2ccccc2C(=O)O1	103

Pending molecule:
Query: Look up and state reported growth for NC(=S)N/N=C/c1ccc(N)cc1
Response: 103

---

- Test system: MALME-3M melanoma
- method: NCI-60 one-dose screen, 48 h (100 = growth as untreated, 0 = no growth, -100 = all killed)
- measurement.conditions: 10 µM
Compounds without any hit were thinned out: in the full panel of roughly 83,000, 20% have a hit.
measured.attribute: growth (%)
Answer format: numeric, % implied, no suffix.

Past entries and their recorded results:
molecule	growth, %
CCCC(C)OCC(=O)O (stereo not given)	90.7
S=C1CCCCCN1	107
COC(=O)C(C)Oc1ccc(OC#N)cc1 (stereo not given)	93.1
N#Cc1c(N)sc(=S)c2c1CCCC2	119
CCOC(=O)/C(C#N)=C/c1cccc(C)c1	96
COc1cc(/C=C/C(=O)c2ccccc2)cc(OC)c1OC	76.8
CC(=O)c1ccc(C)c(N)c1	107
CCOC(=O)C(C#N)Cc1ccccc1 (stereo not given)	136

Query: For the molecule O=C(/C=C\c1ccc(O)cc1)c1ccccc1 , give its measured growth value.
Response: 82.7

Query: For the molecule Cn1cnc2nc(Cl)nc(Cl)c21 , report growth.
Response: 55.6

Query: Please give the documented growth of Sc1ccc(Nc2c3ccccc3nc3ccccc23)cc1
Response: 86

Query: Write down growth measured for item COc1cccc(O)c1O
Response: 67

Query: Annotate the molecule COc1ncnc2c1cnn2C with its measured growth.
Response: 126

Query: Give the reported growth for this molecule. O=C(O)CCCCNC(=O)c1ccccc1
Response: 110

Query: For the molecule Brc1cnc2ccccc2c1 , give its reported growth.
Response: 94.6

---

growth for assorted molecules
- Test system: SK-MEL-5 melanoma
- method: NCI-60 one-dose screen, 48 h (100 = growth as untreated, 0 = no growth, -100 = all killed)
- measurement.conditions: 10 µM
This is part of a sample that, as a whole, favours compounds with a hit. Of some 83,000 tested, about 20% had one in any assay.
Numbers only; they are read as %.

Query: Tell me measured growth for O=C1c2ccccc2C(=O)N1OCc1ccccc1 please.
Response: 110

Query: Consider the molecule CCOc1ccc(/C=N/N=C(N)N)cc1OCC and give its recorded growth.
Response: 98.5

Query: Please give the documented growth of CCCCOC(OCCCC)c1ccccc1
Response: 103

Query: Hello, please tell me recorded growth for this one: CC(C)NC(=O)OCc1c(COC(=O)NC(C)C)c(-c2ccc(Cl)c(Cl)c2)n2c1SCC2
Response: 67.7

Query: Return reported growth. Input molecule: COC(=O)/C=C\C(=O)OC
Response: 106

Query: Report growth for CC1(c2ccccc2)NC(=O)NC1=O (stereo not given)
Response: 108

Query: Recall and state the measured growth for C=CCNc1ccccc1 .
Response: 102

---

Measured growth values are reported for all entries that follow.
- System: PC-3 prostate
- method: NCI-60 one-dose screen, 48 h (100 = growth as untreated, 0 = no growth, -100 = all killed)
- measurement.conditions: 10 µM
The panel holds about 83,000 compounds, 20% with a hit somewhere; the sample as a whole holds those more often.
Supply the numeric figure in %, leaving out any unit text.

Field: example entries. Status: answers known.
compound	growth, %
CC1(O)CCCCC1O (centres undefined)	98.4
CCOC(=O)c1coc(C(=O)OCC)c1C(=O)OCC	122
Cc1nc2ccccc2c2nnc(SCC(=O)N(Cc3ccccc3)c3ccccc3)n12	84.1

Query: Report measured growth; entry is Cc1cc(NC(=O)CSCC(=O)O)no1
Response: 98.6

Query: Report growth for Brc1cnc2ccccc2c1
Response: 97

Query: Give a short answer stating reported growth for CCCCNC1(C#N)CCN(Cc2ccccc2)CC1 .
Response: 96.1

Query: Quick one: give measured growth for Cc1c(C(=O)O)c(=O)n(-c2ccccc2)n1C
Response: 101

Query: Given CCCC(=O)Nc1ccc2c(c1)CN1C(=O)c3ccccc3C1=N2 , respond with its growth.
Response: 98.6

Query: Item FC(F)(F)c1ccc2c(c1)N(CCCN1CCN(C3CC3)CC1)c1ccccc1S2 : provide growth
Response: 48.5

Query: Tell me measured growth for S=C1NCc2cncnc2N1 please.
Response: 96.1

Query: Tell me measured growth for O=[N+]([O-])c1ccc(CO)cc1 please.
Response: 97.2

Query: Kindly indicate its recorded growth. Item: N#C/C(=C\c1cc(O)c(O)c(O)c1)C(N)=O
Response: 46.5

Query: Dear colleague, please send me the reported growth for C=CCNc1ccccc1 when you can.
Response: 85.2

Query: Please report growth for the following compound: Oc1ccc(O)cc1
Response: 89.2

Query: Output measured growth for this item: N#CC1(Nc2ccc3c4c(cccc24)CC3)CCCCC1
Response: 90.8

Query: Give reported growth value for O=C(O)c1ccccc1NCc1ccco1
Response: 111

Query: Provide growth value for the following compound: c1ccc(CN2COc3c(ccc4c3OCN(Cc3ccccc3)C4)C2)cc1
Response: 36.5

Query: Please give measured growth of the following entry: Nc1ccc(N=Nc2ccc(O)cc2)c(N)n1
Response: 60.7

Query: Supply recorded growth for O=C(/C=C/C(=O)c1ccccc1)c1ccccc1 here.
Response: 125

Query: Give the reported growth for this compound. O=C(O)C(Cc1ccccc1)C(=O)O
Response: 94

Query: Find the measured growth of CC(=O)/C(Cc1ccccc1)=N/O and report it.
Response: 84.9

Query: Give growth for COc1ccc(C(O)c2ccccc2)cc1 (centres undefined)
Response: 94.7

Query: Consider the compound CCCCCCCCCCC(C)Br (centres undefined) and give its recorded growth.
Response: 101

Query: Indicate the recorded growth value for this compound: COc1cc(CN)ccc1O
Response: 100

Query: Hello, please tell me recorded growth for this one: O=[N+]([O-])c1cccc2nsnc12
Response: 97.3
